- system: TLR4 (Homo sapiens, UniProt O00206+Q9Y6Y9)
- Construct: expressed in transfected cells; host or cells: HEK293
- Sequence (O00206 24-839): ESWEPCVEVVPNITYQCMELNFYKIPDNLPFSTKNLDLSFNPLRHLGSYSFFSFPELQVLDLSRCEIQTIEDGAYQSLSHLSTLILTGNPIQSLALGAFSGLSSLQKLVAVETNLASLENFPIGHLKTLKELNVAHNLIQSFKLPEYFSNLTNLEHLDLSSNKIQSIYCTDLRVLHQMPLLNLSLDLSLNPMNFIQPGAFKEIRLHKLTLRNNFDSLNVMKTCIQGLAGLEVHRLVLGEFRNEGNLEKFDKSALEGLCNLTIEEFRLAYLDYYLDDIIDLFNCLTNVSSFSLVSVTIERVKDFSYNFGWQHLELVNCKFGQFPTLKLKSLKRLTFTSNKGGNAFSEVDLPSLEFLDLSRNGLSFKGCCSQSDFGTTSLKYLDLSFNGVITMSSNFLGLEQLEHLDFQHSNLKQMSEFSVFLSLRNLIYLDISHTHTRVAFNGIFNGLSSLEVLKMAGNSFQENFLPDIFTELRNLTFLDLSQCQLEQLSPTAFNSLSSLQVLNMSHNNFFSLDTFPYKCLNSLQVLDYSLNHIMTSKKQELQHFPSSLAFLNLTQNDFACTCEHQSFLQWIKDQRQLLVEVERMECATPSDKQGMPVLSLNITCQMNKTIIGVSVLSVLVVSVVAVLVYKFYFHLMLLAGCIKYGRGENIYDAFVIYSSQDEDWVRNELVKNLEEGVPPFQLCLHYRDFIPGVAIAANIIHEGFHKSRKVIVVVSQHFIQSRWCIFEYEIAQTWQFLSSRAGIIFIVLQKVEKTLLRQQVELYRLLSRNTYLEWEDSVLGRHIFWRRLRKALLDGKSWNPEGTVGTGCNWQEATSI
- Sequence (Q9Y6Y9 17-160 limits assumed): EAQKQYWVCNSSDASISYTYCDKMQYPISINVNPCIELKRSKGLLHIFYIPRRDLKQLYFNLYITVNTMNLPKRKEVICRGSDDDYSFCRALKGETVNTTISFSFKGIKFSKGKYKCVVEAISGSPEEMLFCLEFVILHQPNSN
- method: HEK-MD2-TLR4-CD14 IL-8 secretion
- Format: cell-based
- experimental parameters: 3333 ng/ml, 24 h
parameter: IL-8 secretion, mean (pg/mL)
Give the number; pg/mL is assumed, so skip it.

Use the examples below as a reference point.
CCCCCCCCCCCC(=O)O[C@H](CCCCCCCCCCC)CC(=O)N[C@H]1[C@H](OC[C@H]2O[C@H](OCCC)[C@H](NC(=O)C[C@H](O)CCCCCCCCCCC)[C@@H](O)[C@@H]2O)O[C@H](CO)[C@@H](OP(=O)(O)O)[C@@H]1O :: 1.89
CCCCCCCCCCCC(=O)O[C@H](CCCCCCCCCCC)CC(=O)N[C@H]1[C@H](OC[C@H]2O[C@H](O)[C@H](NC(=O)C[C@H](O)CCCCCCCCCCC)[C@@H](O)[C@@H]2O)O[C@H](CO)[C@@H](OP(=O)(O)O)[C@@H]1O :: 1.63
CCCCCCCCCCCC(=O)O[C@H](CCCCCCCCCCC)CC(=O)N[C@H]1[C@H](OC[C@H]2O[C@H](OCC(O)CO)[C@H](NC(=O)C[C@H](O)CCCCCCCCCCC)[C@@H](O)[C@@H]2O)O[C@H](CO)[C@@H](OP(=O)(O)O)[C@@H]1O (stereo partly shown) :: 1.88

Query compound follows.
## Input What value of IL-8 secretion, mean has been recorded for this entry: CCCCCCCCCCCC(=O)O[C@H](CCCCCCCCCCC)CC(=O)N[C@H]1[C@H](OC[C@H]2O[C@H](OCCOP(=O)(O)O)[C@H](NC(=O)C[C@H](O)CCCCCCCCCCC)[C@@H](O)[C@@H]2O)O[C@H](CO)[C@@H](OP(=O)(O)O)[C@@H]1O
## Output 1.62

====

- system: TLR2 (Homo sapiens)
- Construct: host or cells: HEK293
- Sequence (O60603 21-784): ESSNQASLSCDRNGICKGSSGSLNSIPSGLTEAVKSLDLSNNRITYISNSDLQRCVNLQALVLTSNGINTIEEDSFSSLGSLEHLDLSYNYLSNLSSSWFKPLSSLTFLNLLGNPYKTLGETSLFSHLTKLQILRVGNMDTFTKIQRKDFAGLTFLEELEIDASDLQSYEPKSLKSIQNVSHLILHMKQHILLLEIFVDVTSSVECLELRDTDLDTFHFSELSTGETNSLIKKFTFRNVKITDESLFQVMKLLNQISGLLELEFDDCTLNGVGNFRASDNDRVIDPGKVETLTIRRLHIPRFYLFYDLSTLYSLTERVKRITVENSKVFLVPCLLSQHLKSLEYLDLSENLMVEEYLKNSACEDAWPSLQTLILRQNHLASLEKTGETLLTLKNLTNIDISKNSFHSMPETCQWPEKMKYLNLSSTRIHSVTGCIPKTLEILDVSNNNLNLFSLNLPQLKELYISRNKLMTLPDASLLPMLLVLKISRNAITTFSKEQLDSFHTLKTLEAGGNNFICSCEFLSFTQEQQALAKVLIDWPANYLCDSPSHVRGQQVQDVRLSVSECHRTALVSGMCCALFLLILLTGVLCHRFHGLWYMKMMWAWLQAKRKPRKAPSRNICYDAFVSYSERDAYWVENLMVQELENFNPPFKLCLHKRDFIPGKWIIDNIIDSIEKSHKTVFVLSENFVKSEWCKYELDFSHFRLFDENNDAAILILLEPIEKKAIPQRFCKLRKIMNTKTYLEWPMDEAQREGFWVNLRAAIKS
- method: HEK-TLR2 IL-8 secretion
- Type: cell-based
- experimental parameters: 10000 ng/ml, 24 h
parameter: IL-8 secretion, mean (pg/mL)
Please reply with the bare figure in pg/mL and do not write the unit itself.

Examples with answers:
CCCCCCCCCCCC(=O)O[C@H](CCCCCCCCCCC)CC(=O)N[C@H]1[C@H](OC[C@H]2O[C@H](OCC(O)CO)[C@H](NC(=O)C[C@H](O)CCCCCCCCCCC)[C@@H](O)[C@@H]2O)O[C@H](CO)[C@@H](OP(=O)(O)O)[C@@H]1O (stereo partly shown) [compound 19] :: 0.62
CCCCCCCCCCCC(=O)O[C@H](CCCCCCCCCCC)CC(=O)N[C@H]1[C@H](OC[C@H]2O[C@H](O)[C@H](NC(=O)C[C@H](O)CCCCCCCCCCC)[C@@H](O)[C@@H]2O)O[C@H](CO)[C@@H](OP(=O)(O)O)[C@@H]1O [compound 16] :: 0.27
CCCCCCCCCCCC(=O)O[C@H](CCCCCCCCCCC)CC(=O)N[C@H]1[C@H](OC[C@H]2O[C@H](OCCC)[C@H](NC(=O)C[C@H](O)CCCCCCCCCCC)[C@@H](O)[C@@H]2O)O[C@H](CO)[C@@H](OP(=O)(O)O)[C@@H]1O [compound 17] :: 2.02

Then this compound:
## Input Looking for the measured IL-8 secretion, mean of CCCCCCCCCCCC(=O)O[C@H](CCCCCCCCCCC)CC(=O)N[C@H]1[C@H](OC[C@H]2O[C@H](OCCOP(=O)(O)O)[C@H](NC(=O)C[C@H](O)CCCCCCCCCCC)[C@@H](O)[C@@H]2O)O[C@H](CO)[C@@H](OP(=O)(O)O)[C@@H]1O [compound 33] , can you help?
## Output 3.64
